Tested on: HT29 colon
method-notes: NCI-60 one-dose screen, 48 h (100 = growth as untreated, 0 = no growth, -100 = all killed)
assay-context: 10 µM unless noted
Compounds without any hit were thinned out: in the full panel of roughly 83,000, 20% have a hit.
# growth values compiled below
Kindly answer with a numeric value in %, unit omitted.

The following compounds have reported results that may help.
{"columns": ["compound", "readout-units", "growth"],
 "data": [
  ["O=c1cc[nH]c(=O)o1", "%", 95.9],
  ["O=C(CCF)c1ccc(O)cc1", "%", 98.2],
  ["CN1CCN(C(=O)COc2ccc(/C=C3\\CC4C5CC=C6CC(Cl)CCC6(C)C5CCC4(C)C3=O)cc2)CC1 (centres undefined)", "%", -9.75],
  ["Oc1ccc(Br)cc1CN1CCN(Cc2ccc(Cl)cc2)CC1", "%", 70.2],
  ["CC[C@]12C=CCN3CC[C@@]4(c5ccc(OC)cc5N(C)[C@H]4[C@@](O)(C(=O)OC)[C@@H]1OC(=O)CCCN1CCN(CCCC(=O)O[C@@H]4[C@]5(CC)C=CCN6CC[C@@]7(c8ccc(OC)cc8N(C)[C@H]7[C@@]4(O)C(=O)OC)[C@@H]65)CC1)[C@@H]32", "%", -81.3]
]}

Short answer for N#CC1c2ccccc2C=CN1C(=O)c1ccc(N(CCCl)CCCl)cc1 (centres undefined) : growth was 98.7

For record `CCCCOC(=O)c1ccccc1C(=O)O.CCCCOC(=O)c1ccccc1C(=O)O.[Cu+2]` the listed growth is 107

Recorded growth (compound `CCOC(=O)/C=C(\C)Nc1ccc(N/C(C)=C/C(=O)OCC)c2c1Oc1ccccc1O2` ): 112

Briefly, growth measured for `NS(=O)(=O)c1nc[nH]c1[N+](=O)[O-]` : 93.1

---

Tested on: CAKI-1 renal
method-notes: NCI-60 one-dose screen, 48 h (100 = growth as untreated, 0 = no growth, -100 = all killed)
assay-context: 10 µM unless noted
The panel holds about 83,000 compounds, 20% with a hit somewhere; the sample as a whole holds those more often.
observable: growth (%)
I only need the number, in %, no unit after it.

{"columns": ["structure-smiles-string", "measured-on", "observed-result"],
 "data": [
  ["NC(=O)SCC(=O)Nc1ccc([As](=O)(O)O)cc1", "CAKI-1 renal", 109],
  ["CCOc1cc(C=C(C#N)C#N)cc(Br)c1O", "CAKI-1 renal", 92.7],
  ["NC(=O)C(Cl)Cl", "CAKI-1 renal", 98.1]
]}

Let's switch to this compound now.
Case `Oc1ccccc1OB(Oc1ccccc1O)N(CCCl)CCCl` , CAKI-1 renal, growth recorded as 80.4

---

Tested on: MOLT-4 leukemia
method-notes: NCI-60 one-dose screen, 48 h (100 = growth as untreated, 0 = no growth, -100 = all killed)
assay-context: 10 µM
This is part of a sample that, as a whole, favours compounds with a hit. Of some 83,000 tested, about 20% had one in any assay.
observable: growth (%)
Give the value, in units of %, as a plain number.

Solved cases (6 shown):
{"columns": ["molecule", "observed-result"],
 "data": [
  ["C[C@]12CCC(=O)CC1CC[C@@H]1C2CC[C@@]2(C)C1CC[C@@H]2OC(=O)CC[Se][Se]CCC(=O)O[C@H]1CCC2[C@@H]3CCC4CC(=O)CC[C@]4(C)C3CC[C@@]21C (stereo not given in full)", 90.1],
  ["O=C1NC2(CCNCC2)Nc2ccccc21", 84.7],
  ["C[C@]12CCc3sc(-c4ccc(Cl)cc4)nc3C1=CC[C@@H]1[C@@H]2CC[C@]2(C)C(=O)CC[C@@H]12", 8.47],
  ["Cc1ccc(N)cc1[As]=[As]c1cc(N)ccc1C (stereo not given)", -29.9],
  ["CC1(C)N=C(N)N=C(N)N1c1cccc(C(=O)Nc2cccc(S(=O)(=O)F)c2)c1", 112],
  ["COc1ccc(NP2(=O)OCC(C)(N)CO2)cc1 (stereo not given)", 82.2]
]}

Observed growth, MOLT-4 leukemia, OC1(c2ccccc2F)c2ccccc2C2=NCCN21 (stereo not given) : 97.7

---

Readings of growth for the listed compounds
Tested on: HL-60(TB) leukemia
method-notes: NCI-60 one-dose screen, 48 h (100 = growth as untreated, 0 = no growth, -100 = all killed)
assay-context: 10 µM unless noted
The panel holds about 83,000 compounds, 20% with a hit somewhere; the sample as a whole holds those more often.
Supply the numeric figure in %, leaving out any unit text.

Would you please look over these solved cases?
{"columns": ["structure-smiles-string", "growth [%]"],
 "data": [
  ["N#CCCCCCn1c2ccccc2c2c3c(c4c5ccccc5n(CCCCCC#N)c4c21)C(=O)N(O)C3=O", 64.3],
  ["CCOc1nc(-c2ccccc2)cc2c(O)c(C(=O)NCCCO)[nH]c(=O)c12", 177],
  ["CC(C)n1cc(C2=C(c3cccc4ccccc34)C(=O)NC2=O)c2cc(Br)ccc21", 54.1],
  ["CCN(CC)c1ccc(/C=C/c2cc(C)c3ccccc3n2)cc1", 59.1],
  ["COc1ccc(NC(=O)/N=c2\\oc3c(OC)cccc3cc2-c2cc3ccccc3[nH]2)cc1", 142],
  ["Nc1c(C(=O)Nc2ccccn2)sc2nc3c(cc12)C(=O)CCC3", 5.15]
]}

Reported growth for `S=c1c2ncccc2c(-c2ccccn2)nn1Cc1ccccn1` was 71.6

Reported growth for `COc1ccc(NC(=O)CCl)cc1` was 69.8

Data point: `CCOC(=O)c1c(C)nc2c(c1N)/C(=C/c1ccccn1)C(=O)N2Cc1ccccc1` ; growth = -5.96

// recorded growth for `Cc1cc2cc3cc(C)c(N(C)C)cc3[n+](C)c2cc1N(C)C` : 47

---

Test system: HL-60(TB) leukemia
method-notes: NCI-60 one-dose screen, 48 h (100 = growth as untreated, 0 = no growth, -100 = all killed)
assay-context: 10 µM unless noted
This is part of a sample that, as a whole, favours compounds with a hit. Of some 83,000 tested, about 20% had one in any assay.
Just so you know, the groups by growth go like this: small value: < 20%; mid value: ≥ 20% and < 90%; large value: ≥ 90%

Input `COC(=O)c1c2c(n3ccc(C)cc13)C(=O)c1ccccc1C2=O` ; output its category
mid value

Just checking, what class would you give `COc1ccc2sc3c(NCCCN)nc4ccccc4c3c(=O)c2c1` here?
small value

Note: place this compound into its band. Item: COc1cc(/C=C/C(=O)c2ccc(F)cc2)ccc1OCCCCCOc1cc2c(cc1OC)C(=O)N1CCCC1C=N2 (stereo not given)
small value

Tag the class for CCCCCCCCN(CCCCCCCC)CC(O)c1ccc(Cl)c(C)c1Cl (stereo not given)
large value

Given Clc1cccc(C2Cc3cnccc3-c3[nH]c4ccncc4c32)c1 (stereo not given) , name the class its growth places it in.
mid value

---

Test system: HL-60(TB) leukemia
method-notes: NCI-60 one-dose screen, 48 h
assay-context: 10 µM unless noted
This is part of a sample that, as a whole, favours compounds with a hit. Of some 83,000 tested, about 20% had one in any assay. Calls of active or inactive are those of the source. How the source made its calls: active means growth percent below 10; inactive means the rest.
Classes to choose from: active, inactive

Please review the following examples before continuing.
{"columns": ["molecule", "label-value"],
 "data": [
  ["CC(/C=N/N1C(=O)c2ccccc2C1=O)c1ccccc1 (stereo unspecified)", "inactive"],
  ["Nc1nc(-c2cccnc2)nc2c1sc(=S)n2-c1ccccc1", "inactive"],
  ["NC(=S)Nc1cccc(O)c1", "inactive"],
  ["O=C1OC2(c3ccccc31)c1ccccc1-c1ccccc12", "inactive"],
  ["CC(C)/C=C/CC[C@](C)(O)[C@H]1CC[C@]2(C)[C@@H]1CC[C@@H]1[C@@]3(C)C/C(=C/c4cccc(C(F)(F)F)c4)C(=O)C(C)(C)[C@@H]3CC[C@]12C", "inactive"],
  ["CCN(CC)CCCC(C)Nc1c2c(nc3ccc(OC)cc13)CCCC2 (stereo unspecified)", "inactive"]
]}

For `CCOC(=O)C(Nc1ccccc1)C(=O)OCC` , what call appears in the results of this test?
inactive

# fetch the recorded call for `Cc1nc2cc(Nc3nc(Nc4ccc(F)cc4)nc(N4CCN(C)CC4)n3)ccc2n1Cc1ccccc1` here
active

So what was the verdict on C[C@]12CCC3c4ccc(O)cc4C[C@@H](CCCCCCCCCS(=O)CCCC(F)(F)C(F)(F)F)C3C1CC[C@@H]2O (stereo partly specified) in this test?
inactive

Dear colleague, could you share the recorded outcome for COc1cc([C@@H]2c3cc4c(cc3C(O[C@@H]3O[C@@H]5CO[C@@H](c6cccs6)OC5[C@H](O)[C@H]3O)C3COC(=O)[C@@H]32)OCO4)cc(OC)c1O (stereo partly specified) when you have a moment?
active

Test call for this molecule, please: `COC(=O)c1cc(Br)ccc1O`
inactive

Entry `COC(=O)c1c2c(c(C)[n+]([O-])c1C)C(=O)C(NCc1ccccc1)=CC2=O` : call = ?
active

What is the recorded call for this molecule in the test? `N/C(=N\C(N)=N\c1nc2ccccc2s1)c1cccc(Cl)c1`
inactive

Which result was noted for this molecule in the test: `Clc1nc(-c2cccnc2)nc2sc3c(c12)CCCCCC3`
inactive

What outcome does the record of this test show for `COc1nc2c(cc1S(=O)(=O)c1ccccc1)CCc1c-2cnn1-c1ccccc1` ?
inactive

How was CCN1CCC2(CC1)NC(=O)c1c(c3ccc(Cl)c(Cl)c3n1C)C2C#N (stereo unspecified) classified in this test?
inactive

Test call for this molecule, please: `CC(C)(C)C(=O)/C=C/c1ccc([N+](=O)[O-])cc1`
inactive

Status in this test for `Cc1nc2ccccc2n1C(=O)C[C@@H]1NC(=S)NC1=O` ?
inactive

# fetch the recorded call for Clc1ccc2c(NC3CCC(NC4CCCCC4)CC3)ccnc2c1 (stereo unspecified) here
inactive

Per the records of this test, what outcome belongs to c1csc(C2=NN3C(C2)c2ccccc2OC3c2ccncc2)c1 (stereo unspecified) ?
inactive

Just curious, what result did `O=S(=O)(NCCCNc1nccc(-c2c(-c3cccc(O)c3)nc3occn23)n1)c1ccc(Cl)cc1` get here?
inactive
